# test.details: Toxicity in iv dosed NOD.Cg-Prkdcscid Il2rgtmw/SzJ jax 005557 mouse assessed as maximum tolerated dose at 10 mg/kg, iv administered as weekly four doses starting at day 13 post-tumor grafting
# Format: organism-based
# Design: dose 10 mg/kg, route intravenous
# assay.conditions: in vivo
readout.type: MTD (mg/kg)
Could you give me the number in mg/kg? Just the number is fine.

Lookup: Tell me MTD reported for CCN1C[C@]2(COC)[C@H](O)C[C@H](OC)[C@]34C1[C@H]([C@H](OC)[C@H]23)[C@]1(OC(=O)CCCCCCC(=O)O[C@]23[C@H]5[C@@H](OC(=O)c6ccccc6)[C@](O)(C[C@H]5[C@@]56C7[C@@H]2[C@H](OC)[C@@H]5[C@](COC)(CN7CC)[C@H](O)C[C@@H]6OC)[C@@H](OC)[C@@H]3O)[C@H]2[C@@H](OC(=O)c3ccccc3)[C@](O)(C[C@H]24)[C@@H](OC)[C@@H]1O
Found: 15

###

# test.details: Toxicity in iv dosed NOD.Cg-Prkdcscid Il2rgtmw/SzJ jax 005557 mouse assessed as maximum tolerated dose at 10 mg/kg, iv administered as 5 doses every 4 days starting at day 9 post-tumor grafting
# Format: organism-based
# Design: dose 10 mg/kg, route intravenous
# assay.conditions: in vivo
readout.type: MTD at 96 h
Give the value; after it, write the unit.

Lookup: Tell me MTD at 96 h reported for CCN1C[C@]2(COC)[C@H](O)C[C@H](OC)[C@]34C1[C@H]([C@H](OC)[C@H]23)[C@]1(OC(=O)CCCCCCC(=O)O[C@]23[C@H]5[C@@H](OC(=O)c6ccccc6)[C@](O)(C[C@H]5[C@@]56C7[C@@H]2[C@H](OC)[C@@H]5[C@](COC)(CN7CC)[C@H](O)C[C@@H]6OC)[C@@H](OC)[C@@H]3O)[C@H]2[C@@H](OC(=O)c3ccccc3)[C@](O)(C[C@H]24)[C@@H](OC)[C@@H]1O
Found: 15 mg/kg

Each recorded value in this set is attributed to ChEMBL document CHEMBL2040766.
